Measured IC50 values are reported for all entries that follow.
- target: UniProt:Q9GZV3
- Sequence (Q9GZV3 whole entry): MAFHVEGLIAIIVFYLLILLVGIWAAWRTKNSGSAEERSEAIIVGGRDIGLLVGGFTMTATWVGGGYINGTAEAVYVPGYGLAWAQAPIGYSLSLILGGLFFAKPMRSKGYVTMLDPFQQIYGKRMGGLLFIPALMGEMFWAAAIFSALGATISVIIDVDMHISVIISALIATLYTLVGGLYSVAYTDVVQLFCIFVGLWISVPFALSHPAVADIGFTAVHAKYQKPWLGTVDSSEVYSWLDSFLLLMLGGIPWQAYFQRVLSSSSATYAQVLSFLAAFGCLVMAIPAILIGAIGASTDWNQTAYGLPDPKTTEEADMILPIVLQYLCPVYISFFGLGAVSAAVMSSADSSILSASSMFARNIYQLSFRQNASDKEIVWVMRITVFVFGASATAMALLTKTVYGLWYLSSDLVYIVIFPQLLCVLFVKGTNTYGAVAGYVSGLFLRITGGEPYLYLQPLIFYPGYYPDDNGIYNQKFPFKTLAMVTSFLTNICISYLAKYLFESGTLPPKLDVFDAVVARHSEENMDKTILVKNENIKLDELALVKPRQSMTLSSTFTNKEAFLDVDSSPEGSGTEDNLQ
- assay_details: human choline transporter blockers, potency – cell-based, 10-point CRC, membrane potential dye, dose response (AID 588401);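 further: membrane potential dye fluorescence of choline-evoked depolarization via CHT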
- Assay type: functional
Activity calls are given as the source filed them.

Worked examples, 3 compounds total:
O=[N+]([O-])c1cc(Br)cc(/C=N/c2ccc3c(c2)OCO3)c1O : 10 µM (active)
C#CCNc1c(C)c(C)nc2ncnn12 : 4.47 µM (active)
O=[N+]([O-])c1cc(NS(=O)(=O)c2ccc(Cl)nc2)ccc1Cl : 3.35 µM (active)

Exercise: Please look up its IC50: "CCCn1c2ccccc2c2cnn(CC(=O)NCCN(CC)CC)c(=O)c21"
Solution: 3.36 µM (active)

----------
- target: Nucleotide-binding oligomerization domain-containing protein 1 (Homo sapiens, UniProt Q9Y239)
- Sequence (Q9Y239 whole entry, the tested form may be a part): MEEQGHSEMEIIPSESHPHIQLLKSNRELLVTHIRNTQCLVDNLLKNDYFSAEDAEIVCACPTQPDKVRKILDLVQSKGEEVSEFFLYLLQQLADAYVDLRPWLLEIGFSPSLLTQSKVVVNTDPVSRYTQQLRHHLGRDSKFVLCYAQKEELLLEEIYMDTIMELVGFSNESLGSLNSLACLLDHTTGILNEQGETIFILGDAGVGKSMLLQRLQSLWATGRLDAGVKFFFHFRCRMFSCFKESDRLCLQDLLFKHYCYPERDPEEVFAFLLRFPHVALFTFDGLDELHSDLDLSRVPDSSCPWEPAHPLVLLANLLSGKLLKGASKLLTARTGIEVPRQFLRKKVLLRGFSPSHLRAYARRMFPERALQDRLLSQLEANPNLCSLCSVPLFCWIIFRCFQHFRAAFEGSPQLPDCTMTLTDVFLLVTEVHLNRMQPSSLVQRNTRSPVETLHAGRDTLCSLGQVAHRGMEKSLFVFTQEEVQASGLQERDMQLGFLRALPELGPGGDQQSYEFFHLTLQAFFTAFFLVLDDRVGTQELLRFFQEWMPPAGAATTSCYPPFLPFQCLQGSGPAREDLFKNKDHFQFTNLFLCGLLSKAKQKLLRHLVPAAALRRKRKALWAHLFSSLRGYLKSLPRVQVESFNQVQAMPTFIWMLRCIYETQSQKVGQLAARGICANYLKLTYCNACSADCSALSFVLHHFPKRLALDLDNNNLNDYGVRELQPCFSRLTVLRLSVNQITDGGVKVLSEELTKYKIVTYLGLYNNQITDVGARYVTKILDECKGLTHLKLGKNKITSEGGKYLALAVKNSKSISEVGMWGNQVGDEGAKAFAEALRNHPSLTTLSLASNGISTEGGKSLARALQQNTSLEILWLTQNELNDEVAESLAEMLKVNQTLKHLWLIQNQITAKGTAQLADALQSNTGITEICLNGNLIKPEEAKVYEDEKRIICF
- assay_details: blockers of NOD1 pathway activity – revised, SAR follow-up (AID 2333)
- Format: functional
Active and inactive are the calls of the source.
Mark one answer only. Choices: active, inactive

COc1cc(C(=O)Nc2sc3c(c2C(=O)O)CCC(C)C3)cc(OC)c1OC (stereo unspecified) : active

Exercise: What did the test return for "O=C(Nc1ccc(Cl)cc1)c1ccc(CCN2CCc3ccccc3C2)cc1" ?
Solution: inactive

Exercise: What did the test return for CC1Cc2cc(S(=O)(=O)N3CCN(c4ccccc4)CC3)ccc2N1C(=O)C1CC1 (stereo unspecified) ?
Solution: inactive

Exercise: What did the test return for N#CC(c1ccccc1)c1ccc2c(C(F)(F)F)cc(C(F)(F)F)nc2n1 (stereo unspecified) ?
Solution: active

Exercise: What did the test return for Cc1cc(C(=O)COC(=O)c2ccccc2Br)c(C)n1CC1CCCO1 (stereo unspecified) ?
Solution: active

Exercise: What did the test return for Cc1cc(C(=O)NC2CCCc3c2cnn3-c2ccccc2F)n(C)n1 (stereo unspecified) ?
Solution: active

----------
- target: Interleukin-1 receptor-associated kinase 4 (Homo sapiens, UniProt Q9NWZ3)
- Sequence (Q9NWZ3 whole entry): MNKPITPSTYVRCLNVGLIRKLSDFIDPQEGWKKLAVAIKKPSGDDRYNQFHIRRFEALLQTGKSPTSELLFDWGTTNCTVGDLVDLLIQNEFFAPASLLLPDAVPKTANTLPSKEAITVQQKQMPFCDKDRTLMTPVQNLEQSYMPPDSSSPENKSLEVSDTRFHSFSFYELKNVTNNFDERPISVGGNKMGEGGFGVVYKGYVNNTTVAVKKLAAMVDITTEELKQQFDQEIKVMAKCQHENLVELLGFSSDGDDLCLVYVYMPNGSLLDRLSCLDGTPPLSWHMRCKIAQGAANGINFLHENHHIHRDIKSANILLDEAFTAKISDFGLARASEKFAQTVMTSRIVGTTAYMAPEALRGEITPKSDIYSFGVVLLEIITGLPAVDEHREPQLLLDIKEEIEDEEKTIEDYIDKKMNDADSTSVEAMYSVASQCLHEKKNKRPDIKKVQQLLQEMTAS
- Assay type: functional
Activity calls are given as the source filed them.
Measured Ki values are reported for all entries that follow.

Worked examples, 2 compounds total:
C=CCNc1cc(-c2c[nH]c3ncccc23)cc(Cl)n1 : 631 nM (active)
O=C1Nc2ccccc2Nc2cc(-c3ccncc3Cl)ccc21 : 1000 nM (active)

Exercise: Please look up its Ki: "CCCCOc1cc(-c2ccncc2)cc2[nH]nc(N)c12"
Solution: 631 nM (active)

Exercise: Please look up its Ki: "Fc1cccc(-c2c[nH]c3ncccc23)c1"
Solution: 2510 nM (active)

Exercise: Please look up its Ki: "CCOC(=O)c1c[nH]n2c(=O)cc(-c3ccncc3)nc12"
Solution: > 10000 nM (inactive)

----------
- Tested on: BJ
- assay_details: BJ-TERT fibroblast viability loss – cell-based, RAS-independent, luminescence, dose response (AID 1933)
- Format: functional
- condition_parameters: Homo sapiens
Activity calls are given as the source filed them.
result_type: EC50

Worked examples, 3 compounds total:
CC(=O)c1cccc(NC(=O)/C=C/c2ccc([N+](=O)[O-])s2)c1 : 4.44 µM (active)
CCCN1C=CC(=C2C(=O)c3ccccc3C2=O)C=C1 : 6.69 µM (active)
COc1ccccc1N1CCN(C(=O)c2cc(=O)c3cc(C)cc(C)c3o2)CC1 : 0.346 µM (active)

Exercise: Please look up its EC50: Cc1c(C(=O)OCC2CCCO2)[nH]c2c1C(=O)CC(c1ccco1)C2 (centres undefined)
Solution: 12.2 µM (active)

Exercise: Please look up its EC50: "O=C(CCl)Nc1cc(-c2ccccc2)nn1-c1ccccc1"
Solution: 5.38 µM (inconclusive)

Exercise: Please look up its EC50: COc1cc2c(cc1OC)C(c1cc(Br)ccc1F)N(C(=O)CCl)CC2 (centres undefined)
Solution: 2.7 µM (inconclusive)

Exercise: Please look up its EC50: "Cc1nn(-c2ccccc2)c(C)c1/C=N/NC(=O)c1cc(-c2ccccc2)[nH]n1"
Solution: 0.308 µM (active)

Exercise: Please look up its EC50: "COc1ccc(/C=C(\C#N)c2c[nH]c3ccccc23)cc1"
Solution: 0.706 µM (inconclusive)

Exercise: Please look up its EC50: O=C(Cc1ccc(N2CCNC2=O)cc1)N1CCCC(Nc2ccc(F)c(F)c2)C1 (centres undefined)
Solution: 9.17 µM (inconclusive)

----------
- target: Mitogen-activated protein kinase kinase kinase kinase 4 (Homo sapiens, UniProt O95819)
- Sequence (O95819 whole entry): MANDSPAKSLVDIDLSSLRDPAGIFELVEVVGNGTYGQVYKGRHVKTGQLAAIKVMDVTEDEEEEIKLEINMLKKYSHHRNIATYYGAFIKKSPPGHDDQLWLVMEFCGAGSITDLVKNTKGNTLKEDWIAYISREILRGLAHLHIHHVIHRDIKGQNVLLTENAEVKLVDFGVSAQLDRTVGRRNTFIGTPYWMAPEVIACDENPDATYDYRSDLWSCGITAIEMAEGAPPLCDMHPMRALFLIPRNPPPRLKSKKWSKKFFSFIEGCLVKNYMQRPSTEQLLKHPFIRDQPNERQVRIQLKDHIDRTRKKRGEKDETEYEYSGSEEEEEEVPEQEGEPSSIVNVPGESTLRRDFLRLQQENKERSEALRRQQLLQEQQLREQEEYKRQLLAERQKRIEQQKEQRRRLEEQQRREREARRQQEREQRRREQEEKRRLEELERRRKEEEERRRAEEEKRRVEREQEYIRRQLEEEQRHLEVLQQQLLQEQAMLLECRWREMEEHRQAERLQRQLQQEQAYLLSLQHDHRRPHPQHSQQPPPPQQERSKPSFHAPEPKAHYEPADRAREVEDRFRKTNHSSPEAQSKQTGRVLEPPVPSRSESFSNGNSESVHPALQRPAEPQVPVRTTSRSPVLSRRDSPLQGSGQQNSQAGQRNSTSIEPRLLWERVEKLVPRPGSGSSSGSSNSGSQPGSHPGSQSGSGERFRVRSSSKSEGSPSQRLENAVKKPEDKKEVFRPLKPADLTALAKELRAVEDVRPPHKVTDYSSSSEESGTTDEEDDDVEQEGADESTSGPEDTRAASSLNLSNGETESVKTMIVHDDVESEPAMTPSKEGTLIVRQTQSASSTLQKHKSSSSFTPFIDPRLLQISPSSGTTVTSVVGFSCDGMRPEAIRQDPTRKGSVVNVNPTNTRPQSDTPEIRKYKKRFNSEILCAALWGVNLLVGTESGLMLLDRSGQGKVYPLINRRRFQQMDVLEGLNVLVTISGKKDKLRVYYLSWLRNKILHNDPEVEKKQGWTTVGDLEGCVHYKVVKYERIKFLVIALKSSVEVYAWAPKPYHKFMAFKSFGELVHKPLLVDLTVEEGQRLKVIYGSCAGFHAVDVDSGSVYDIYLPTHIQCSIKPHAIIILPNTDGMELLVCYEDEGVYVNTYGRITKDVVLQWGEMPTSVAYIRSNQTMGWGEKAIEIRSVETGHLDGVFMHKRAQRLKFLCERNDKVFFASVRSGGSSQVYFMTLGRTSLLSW
- Type: functional
The source made the active and inactive calls.
Mark one answer only. Choices: Y for active, N for inactive

Completed entries (count: 3):
O=C1Nc2cc(-c3ccc(O)cc3)ccc2C1=Cc1ccc[nH]1 : Y
NC(COc1cncc(-c2ccc3c(c2)C(=Cc2ccc[nH]2)C(=O)N3)c1)Cc1ccccc1 (configuration not stated) : Y
O=C1Nc2ccccc2Nc2cc(-c3ccncc3Cl)ccc21 : Y

Exercise: What did the test return for "CCCCOc1cc(-c2ccncc2)cc2[nH]nc(N)c12" ?
Solution: Y

Exercise: What did the test return for "Fc1cccc(-c2c[nH]c3ncccc23)c1" ?
Solution: Y

Exercise: What did the test return for "CCOC(=O)c1c[nH]n2c(=O)cc(-c3ccncc3)nc12" ?
Solution: N

Exercise: What did the test return for "O=C1Cc2cc(-c3ccccc3)cnc2N1" ?
Solution: Y

----------
- assay_details: cells
- Type: functional, cell-based
Active and inactive are the calls of the source.
Measured EC50 values are reported for all entries that follow.

Worked examples, 4 compounds total:
C=CCNC(=O)/C(=C/c1cn(-c2ccccc2)nc1-c1cccc([N+](=O)[O-])c1)NC(=O)c1ccccc1 : > 350 µM (not active)
O=C(NCCCn1ccnc1)c1cc(-c2cccs2)on1 : 13.2 µM (active)
Brc1ccc(N/N=C(/N=Nc2nn[nH]n2)c2ccccc2)cc1 : 86.5 µM (active)
CCN(CC)S(=O)(=O)c1ccc(N/N=C(\C)c2ccc(OC)cc2O)nc1 : 29.1 µM (active)

Exercise: Please look up its EC50: CCCCC(=O)NC(c1ccc(C(C)C)cc1)c1ccc2cccnc2c1O (stereo not drawn)
Solution: 2.94 µM (active)

Exercise: Please look up its EC50: "O=C(c1cc2ccccc2o1)N1CCN(Cc2ccc3c(c2)OCO3)CC1"
Solution: > 350 µM (not active)

Exercise: Please look up its EC50: "CCCc1nc2ccccc2c(=O)n1/N=C/c1ccccc1O"
Solution: > 350 µM (not active)

Exercise: Please look up its EC50: c1ccc(CSC2=NNC(c3ccccn3)S2)cc1 (stereo not drawn)
Solution: 66.9 µM (active)

----------
- target: Zinc finger protein mex-5 (Caenorhabditis elegans, UniProt Q9XUB2)
- Sequence (Q9XUB2 whole entry): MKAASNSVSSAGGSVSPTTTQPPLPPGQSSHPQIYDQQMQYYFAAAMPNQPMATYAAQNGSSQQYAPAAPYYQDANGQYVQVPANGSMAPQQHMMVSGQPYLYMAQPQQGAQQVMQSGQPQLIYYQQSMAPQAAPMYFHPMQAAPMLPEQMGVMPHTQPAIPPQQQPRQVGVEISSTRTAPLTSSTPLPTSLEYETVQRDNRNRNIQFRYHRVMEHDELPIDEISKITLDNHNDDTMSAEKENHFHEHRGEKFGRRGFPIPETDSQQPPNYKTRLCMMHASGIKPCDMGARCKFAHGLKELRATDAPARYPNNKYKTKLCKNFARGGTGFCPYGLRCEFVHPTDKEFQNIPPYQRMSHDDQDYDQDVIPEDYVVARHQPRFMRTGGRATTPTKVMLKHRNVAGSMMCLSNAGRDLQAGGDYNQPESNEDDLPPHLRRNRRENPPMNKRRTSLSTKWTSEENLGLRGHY
- assay_details: potency of MEX-5 RNA-binding blockers – biochemical, C. elegans, fluorescence polarization, dose response (AID 1960)
Activity calls are given as the source filed them.
result_type: EC50

Exercise: Query EC50 on Zinc finger protein mex-5 (Caenorhabditis elegans, UniProt Q9XUB2) for "C/C(CCc1oc2ccc(Cl)cc2c1-c1ccc(C)o1)=N\O"
Solution: > 300 µM (not active)

Exercise: Query EC50 on Zinc finger protein mex-5 (Caenorhabditis elegans, UniProt Q9XUB2) for "O=C(O)CCC(=O)NCc1ccc2[nH]c3c(c2c1)CCCC3"
Solution: 112 µM (active)
